// viability at 24 h, 10 µM lookup, one value per entry
# test.protocol: Cytotoxicity against LPS-activated […] cells assessed as cell viability at 10 uM after 24 hrs by MTT assay (reference value: 98.03 to 98.84%)
# Assay type: toxicity, cell-based, Mus musculus, BV-2
# condition.info: read-out: Activity
metric: viability at 24 h, 10 µM (%)

[[record]]
compound = "COc1cc(CO)cc(OC)c1O[C@@H]1O[C@H](CO)[C@@H](O)[C@H](O)[C@H]1O"
unit_label = "%"
endpoint_value = 94.7

[[record]]
compound = "C[C@@H]1O[C@@H](OC[C@H]2O[C@@H](Oc3c(-c4ccc(O)cc4)oc4cc(O)cc(O)c4c3=O)[C@H](O)[C@@H](O)[C@@H]2O)[C@H](O)[C@H](O)[C@H]1O [NICOTIFLOROSIDE]"
unit_label = "%"
endpoint_value = 110

[[record]]
compound = "COc1cc([C@H]2OC[C@H]3[C@@H]2CO[C@@H]3c2cc(OC)c(O[C@@H]3O[C@H](CO)[C@@H](O)[C@H](O)[C@H]3O)c(OC)c2)cc(OC)c1O"
unit_label = "%"
endpoint_value = 87.4

[[record]]
compound = "O=c1c(O)c(-c2ccc(O)c(O)c2)oc2cc(O)cc(O)c12 [QUERCETIN]"
unit_label = "%"
endpoint_value = 90.7

[[record]]
compound = "C[C@@H]1O[C@@H](Oc2c(-c3ccc(O)c(O)c3)oc3cc(O)cc(O)c3c2=O)[C@H](O)[C@H](O)[C@H]1O [QUERCITRIN]"
unit_label = "%"
endpoint_value = 91

[[record]]
compound = "COc1cc([C@@H]2OC[C@H]3[C@@H]2CO[C@@H]3c2cc(OC)c(O[C@@H]3O[C@H](CO)[C@@H](O)[C@H](O)[C@H]3O)c(OC)c2)cc(OC)c1O"
unit_label = "%"
endpoint_value = 91.6

[[record]]
compound = "C[C@@H]1O[C@@H](OC[C@H]2O[C@@H](Oc3c(-c4cc(O)c(O)c(O)c4)oc4cc(O)cc(O)c4c3=O)[C@H](O)[C@@H](O)[C@@H]2O)[C@H](O)[C@H](O)[C@H]1O"
unit_label = "%"
endpoint_value = 87.1

[[record]]
compound = "O=c1c(O[C@@H]2O[C@H](CO)[C@@H](O)[C@H](O)[C@H]2O[C@@H]2O[C@H](CO)[C@@H](O)[C@H](O)[C@H]2O)c(-c2ccc(O)c(O)c2)oc2cc(O)cc(O)c12"
unit_label = "%"
endpoint_value = 87.7

[[record]]
compound = "C[C@@H]1O[C@@H](Oc2c(-c3cc(O)c(O)c(O)c3)oc3cc(O)cc(O)c3c2=O)[C@H](O)[C@H](O)[C@H]1O"
unit_label = "%"
endpoint_value = 99.5

[[record]]
compound = "Oc1cc(O)c2c(c1)O[C@]1(c3ccc(O)c(O)c3)Oc3cc(O)c4c(c3[C@H]2[C@@H]1O)O[C@@]1(c2ccc(O)c(O)c2)Oc2cc(O)c3c(c2[C@@H]4[C@H]1O)O[C@@H](c1ccc(O)c(O)c1)[C@H](O)C3"
unit_label = "%"
endpoint_value = 97.3

[[record]]
compound = "COc1cc(-c2oc3cc(O)cc(O)c3c(=O)c2O[C@@H]2O[C@H](CO[C@@H]3O[C@@H](C)[C@H](O)[C@@H](O)[C@H]3O)[C@@H](O)[C@H](O)[C@H]2O)ccc1O [NARCISSIN]"
unit_label = "%"
endpoint_value = 89.5

[[record]]
compound = "COc1cc(/C=C/C(=O)O)cc(OC)c1O[C@@H]1O[C@H](CO)[C@@H](O)[C@H](O)[C@H]1O"
unit_label = "%"
endpoint_value = 96.3

[[record]]
compound = "Oc1cc(O)c2c(c1)O[C@H](c1cc(O)c(O)c(O)c1)[C@H](O)C2 [EPIGALLOCATECHIN]"
unit_label = "%"
endpoint_value = 96.4

[[record]]
compound = "O=c1c(O)c(-c2cc(O)c(O)c(O)c2)oc2cc(O)cc(O)c12 [MYRICETIN]"
unit_label = "%"
endpoint_value = 98.4

[[record]]
compound = "O=C(O)/C=C\\c1ccc(O[C@@H]2O[C@H](CO)[C@@H](O)[C@H](O)[C@H]2O)cc1"
unit_label = "%"
endpoint_value = 95.4

[[record]]
compound = "Oc1cc(O)c2c(c1)O[C@H](c1ccc(O)c(O)c1)[C@@H](O)C2 [CIANIDANOL]"
unit_label = "%"
endpoint_value = 88.3

[[record]]
compound = "O=C(O)/C=C/c1ccc(O[C@@H]2O[C@H](CO)[C@@H](O)[C@H](O)[C@H]2O)cc1"
unit_label = "%"
endpoint_value = 98.4

[[record]]
compound = "C[C@@H]1O[C@@H](OC[C@H]2O[C@@H](Oc3c(-c4ccc(O)c(O)c4)oc4cc(O)cc(O)c4c3=O)[C@H](O)[C@@H](O)[C@@H]2O)[C@H](O)[C@H](O)[C@H]1O [RUTIN]"
unit_label = "%"
endpoint_value = 94.6

[[record]]
compound = "COc1cc([C@@H]2OC[C@H]3[C@@H]2CO[C@H]3c2cc(OC)c(O[C@@H]3O[C@H](CO)[C@@H](O)[C@H](O)[C@H]3O)c(OC)c2)cc(OC)c1O[C@@H]1O[C@H](CO)[C@@H](O)[C@H](O)[C@H]1O"
unit_label = "%"
endpoint_value = 97.5

[[record]]
compound = "O=c1c(O[C@@H]2O[C@H](CO)[C@@H](O)[C@H](O)[C@H]2O)c(-c2ccc(O)c(O)c2)oc2cc(O)cc(O)c12 [ISOQUERCETIN]"
unit_label = "%"
endpoint_value = 98.4

[[record]]
compound = "Oc1cc(O)c2c(c1)O[C@H](c1cc(O)c(O)c(O)c1)[C@@H](O)C2 [GALLOCATECHIN]"
unit_label = "%"
endpoint_value = 94.2

[[record]]
compound = "Oc1cc(O)c2c(c1)O[C@H](c1ccc(O)c(O)c1)[C@H](O)C2 [(-)-EPICATECHIN]"
unit_label = "%"
endpoint_value = 87.6

